Test system: A549/ATCC NSCLC
Experimental Details: NCI-60 one-dose screen, 48 h (100 = growth as untreated, 0 = no growth, -100 = all killed)
Condition Info: 10 µM unless noted
This is part of a sample that, as a whole, favours compounds with a hit. Of some 83,000 tested, about 20% had one in any assay.

Molecule: CCC(C)(C)O
growth, %: 108
//
Molecule: CC(=O)OC1CCC2(C)C(=CCC3C4CC(CN5CC5)C(=O)C4(C)CCC32)C1 (stereo unspecified)
growth, %: 94.1
//
Molecule: CC(=O)O[C@@H]1C2=C(C)C3(CC3)[C@@](C)(O)C(=O)C2=C[C@@]1(C)CO
growth, %: 6.08
//
Molecule: CC(=O)O[C@H]1CCC2C3CCC4=C/C(=N/O)CCC4(C)C3CCC21C (stereo partly specified)
growth, %: 99.7
//
Molecule: C[C@@H]1CC[C@@H]2[C@@H]1[C@H](OC(=O)/C=C/C1CCCCC1)[C@]1(C3CCCCC3)C[C@@H](OC(=O)CO)[C@@]2(C)O1
growth, %: 60.6
//
Molecule: N#C[Se]CCCNS(=O)(=O)C1CC2C=CC1C2 (stereo unspecified)
growth, %: -34.1

====

System: HL-60(TB) leukemia
Experimental Details: NCI-60 one-dose screen, 48 h (100 = growth as untreated, 0 = no growth, -100 = all killed)
Condition Info: 10 µM unless noted
The panel holds about 83,000 compounds, 20% with a hit somewhere; the sample as a whole holds those more often.
Items are presented alongside their recorded growth.
Readout Type: growth (%)

Molecule: Nn1c(SCC(=O)Nc2ccc(Cl)cc2)nnc1-c1cc(F)c(Cl)cc1Cl
Readout Type: growth
Endpoint Result: 84.5
//
Molecule: O=C(C[C@]1(O)C(=O)Nc2ccc(Br)cc21)c1ccco1
Readout Type: growth
Endpoint Result: 107
//
Molecule: Cc1nc2sc(C(=O)Nc3cccc(Cl)c3C)c(N)c2cc1C(O)c1ccccc1 (configuration not stated)
Readout Type: growth
Endpoint Result: -42.3
//
Molecule: O=C(NC(=S)NNC(=S)NNc1ccccc1)c1ccccc1
Readout Type: growth
Endpoint Result: 0.166
//
Molecule: CCC(C)CC(C)C(=O)c1c(O)ccn(O)c1=O (configuration not stated)
Readout Type: growth
Endpoint Result: -0.418
//
Molecule: Nc1ncc(-c2cnn(C3CCNCC3)c2)cc1-c1nc2ccccc2o1
Readout Type: growth
Endpoint Result: -55.5
//
Molecule: Nc1n[nH]c2cccc(C#Cc3cccc(C(=O)Nc4ccc(Cl)c(C(F)(F)F)c4)c3)c12
Readout Type: growth
Endpoint Result: 21

====

System: HL-60(TB) leukemia
Experimental Details: NCI-60 one-dose screen, 48 h
Condition Info: 10 µM unless noted
This is part of a sample that, as a whole, favours compounds with a hit. Of some 83,000 tested, about 20% had one in any assay. Calls of active or inactive are those of the source. The calls were made as follows: active = growth percent below 10; inactive = the rest.
Classes used: active, inactive

Compound: CCN(CC)c1ccc(CNc2cc(C)nc3ccc(OC)cc23)cc1
Answer Label: active
--
Compound: CNC(=O)c1cc(Oc2ccc3c(c2)sc2nc(-c4ccc(Cl)c(C(F)(F)F)c4)cn23)ccn1
Answer Label: inactive
--
Compound: CC(C)(C)CC(C)(C)NCc1cc(C(C)(C)C)cc(CNC(C)(C)CC(C)(C)C)c1O
Answer Label: active
--
Compound: CC1=C([Se]CC(OC(=O)[C@@H](CO)NC(=O)OC(C)(C)C)C(=O)NC(C)(C)C)C(=O)c2ccccc2C1=O (stereo partly specified)
Answer Label: active
--
Compound: COc1cc(/C(C#N)=C/c2ccc3c(c2OC)OCO3)cc2c1OCO2
Answer Label: inactive
--
Compound: CC1=C(NCCN2CCCC2)C(=O)c2c(OCc3cccc(Cl)c3)cccc2C1=O
Answer Label: inactive
--
Compound: Cc1nc2ccccc2n1-c1ncnc2c1CC(C)c1ccccc1N2C (stereo unspecified)
Answer Label: inactive
--
Compound: N#Cc1c2ncccc2c2nnc3cc(Cl)c(Cl)cc3n12
Answer Label: inactive
--
Compound: CC1SC(c2ccc(OCc3ccccc3)cc2)N(NC(=O)C(O)(c2ccccc2)c2ccccc2)C1=O (stereo unspecified)
Answer Label: inactive
--
Compound: O=Nc1c2cccnc2n2nnc3ccc(Cl)cc3c12
Answer Label: active
--
Compound: COc1ccc(Sc2[nH]c(C(C)=O)c3ccccc23)cc1
Answer Label: inactive
--
Compound: COc1ccc2[nH]c(-c3ccccc3)c(C=C(C#N)C#N)c2c1
Answer Label: active
--
Compound: CSc1nc(-c2ccc(F)cc2)c(C#N)c(N2CCOCC2)n1
Answer Label: inactive
--
Compound: CNc1nc(NC)c2cn[nH]c2n1
Answer Label: inactive
--
Compound: Clc1cc(Cl)cc(N2N=C(c3cccc(Nc4ccncc4)c3)CC2c2ccccc2)c1 (stereo unspecified)
Answer Label: active
--
Compound: CCCCOc1nc2cc(Cl)ccc2cc1/C=C/c1cc(/C=C/c2cc3ccc(Cl)cc3nc2OCCCC)n(-c2ccccc2)n1
Answer Label: inactive
--
Compound: CCN(CC)CCCNc1nccc2ccc(Cl)cc12
Answer Label: inactive
--
Compound: N#CN1CC[C@H](C(=O)Nc2ncc(-c3ccccc3)s2)C1
Answer Label: active
--
Compound: CCOC(=O)C/C(=C\c1ccccc1)C(C)=O
Answer Label: inactive
--
Compound: COc1cccc2c1C(=O)c1c(O)c3c(c(O)c1C2=O)C[C@@](O)(C(=O)CO)C[C@@H]3O[C@H]1C[C@H](N)[C@@H](O)[C@H](C)O1
Answer Label: active
--
Compound: O=C(Nc1cccc(F)c1)Nc1cccc(Cl)c1
Answer Label: active

====

Tested on: HOP-62 NSCLC
Experimental Details: NCI-60 one-dose screen, 48 h
Condition Info: 10 µM unless noted
The panel holds about 83,000 compounds, 20% with a hit somewhere; the sample as a whole holds those more often. Activity calls are given as the source filed them. The calls were made as follows: active = growth percent below 10; inactive = the rest.
Possible outcomes: 1 = active, -1 = inactive

Compound: S=P(N1CCCCCC1)(N1CC1)N1CC1
Answer Label: -1
--
Compound: O=[N+]([O-])c1cccc([As]=[As]c2cccc([N+](=O)[O-])c2)c1 (stereo not drawn)
Answer Label: 1
--
Compound: O=C(CC1(O)C(=O)Nc2ccc(F)cc21)c1ccc(C(=O)NCC2CCC3(CC2)OOC2(CCCCC2)OO3)cc1 (stereo not drawn)
Answer Label: 1
--
Compound: CN1CCN(C(=O)COc2ccc(/C=C3\CC4C5CC=C6CC(Cl)CCC6(C)C5CCC4(C)C3=O)cc2)CC1 (stereo not drawn)
Answer Label: -1
--
Compound: CC(C)CCC1(CCO)C(=O)NC(=S)NC1=O
Answer Label: -1
--
Compound: Nc1c(Br)cc2c3c(cccc13)-c1ccccc1-2
Answer Label: -1
--
Compound: CC(C)C1c2ccc(O)cc2Oc2nc(N)c(C#N)c(N)c21 (stereo not drawn)
Answer Label: -1
--
Compound: Cc1cc(NC(=O)CCc2ccc(N3C(N)=NC(N)=NC3(C)C)cc2)ccc1S(=O)(=O)F
Answer Label: -1
--
Compound: O=S(=O)(c1ccc(Cl)cc1)C(Cl)(Cl)Cl
Answer Label: -1
--
Compound: C[C@@H]1CC[C@@H]2[C@@H]1[C@H](OC(=O)/C=C/C1CCCCC1)[C@]1(C3CCCCC3)C[C@@H](OC(=O)CO)[C@@]2(C)O1
Answer Label: -1
--
Compound: CCOc1c(Cl)cc(CNC(C)C(O)c2ccccc2)cc1OC (stereo not drawn)
Answer Label: -1
--
Compound: CC(=O)O[C@H]1CCC2(C)C(=CCC3C2CCC2(C)/C(=N/OC(=O)c4ccc(N(CCCl)CCCl)cc4)CCC32)C1 (stereo partly drawn)
Answer Label: 1
--
Compound: NC(Cc1ccc(O)cc1)C(=O)N/N=C/c1ccc(N(CCCl)CCCl)cc1 (stereo not drawn)
Answer Label: -1
--
Compound: CC(=O)C1C(=O)N(C)C(=O)N(C)C1=O
Answer Label: -1
--
Compound: ClCCN(CCCl)C(c1ccccc1)c1ccc(Cl)cc1 (stereo not drawn)
Answer Label: -1
--
Compound: C[C@]12CC[C@@H]3c4ccc(OC(=O)Cc5ccc(N(CCCl)CCCl)cc5)cc4CC[C@H]3[C@@H]1CC[C@@H]2OC(=O)Cc1ccc(N(CCCl)CCCl)cc1
Answer Label: -1
--
Compound: CCOc1cc(/C=N\Nc2nnc(C)n2N)c(C)cc1N(CCCl)CCCl
Answer Label: -1
--
Compound: CC(=O)O[C@H]1CCC2C3CCC4=C/C(=N/O)CCC4(C)C3CCC21C (stereo partly drawn)
Answer Label: -1
--
Compound: CN=C(NN)NN
Answer Label: -1
--
Compound: COc1ccc(C2=NN(c3ccccc3)C(c3sc(N(CCCl)CCCl)nc3Cl)C2)cc1 (stereo not drawn)
Answer Label: -1
--
Compound: CCOc1cc(C=C(C#N)C#N)cc(Br)c1O
Answer Label: -1
--
Compound: CC(C)(NC(=O)c1nn(CCCCCF)c2ccccc12)c1ccccc1
Answer Label: -1
--
Compound: c1ccc(CCN2CCCCC2Cc2ccccc2)cc1 (stereo not drawn)
Answer Label: -1
--
Compound: Nc1nc(N)c(-c2ccc(Cl)c(Cl)c2)c(/C=C/c2ccc(S(=O)(=O)F)cc2)n1
Answer Label: -1
--
Compound: [Br][Pb]([c]1ccccc1)([c]1ccccc1)[c]1ccccc1
Answer Label: 1
--
Compound: O=[As]c1ccc(C(=O)c2ccc(Oc3ccccc3)cc2)cc1 (stereo not drawn)
Answer Label: 1
--
Compound: FC(F)=C(F)c1ccccc1
Answer Label: -1
--
Compound: CNC(=O)O/N=C(/C)c1ccc(Cl)cc1
Answer Label: -1
--
Compound: O=C1NC(=O)C(=Cc2cn(Cc3ccccc3)c3ccccc23)C(=O)N1
Answer Label: -1
--
Compound: CCOP(=O)(OCC)Oc1ccc(Sc2ccc(OP(=O)(OCC)OCC)cc2)cc1
Answer Label: -1
--
Compound: CN(Cc1cccnc1)N=O
Answer Label: -1
--
Compound: CC1(C)N=C(N)N=C(N)N1c1ccc(OCCCCNC(=O)Nc2cccc(S(=O)(=O)F)c2)c(Cl)c1
Answer Label: -1
--
Compound: CC1(C)N=C(N)N=C(N)N1c1ccc(OCCCCNC(=O)c2ccc(S(=O)(=O)F)cc2)c(Cl)c1
Answer Label: -1
--
Compound: C/C(=C\C(=O)O[C@H]1[C@@H]2[C@H](C)CC[C@H]2[C@]2(C)O[C@@]1(C1CCCCC1)C[C@H]2OC(=O)CO)c1ccccc1
Answer Label: -1
--
Compound: CC1(C)N=C(N)N=C(N)N1c1ccc(OCCCCOc2ccc(S(=O)(=O)F)cc2)c(Cl)c1
Answer Label: -1
--
Compound: CC(=O)Nc1ccc(C=C2C(=O)NC(=O)NC2=O)cc1
Answer Label: -1
--
Compound: COc1cccc2c1C(=O)c1c(O)c3c(c(O)c1C2=O)CC(O)(/C(C)=N/NC(=O)CCC(=O)N/N=C(\C)C1(O)Cc2c(O)c4c(c(O)c2C(OC2CC(N)C(O)C(C)O2)C1)C(=O)c1c(OC)cccc1C4=O)CC3OC1CC(N)C(O)C(C)O1 (stereo not drawn)
Answer Label: 1
--
Compound: NC(=O)NC(=O)CI
Answer Label: -1
--
Compound: O=C1NC(=O)C(Cc2ccccc2)(Cc2ccccc2)C(=O)N1
Answer Label: -1
--
Compound: [O]=[Sn]([CH]1CCCCC1)[CH]1CCCCC1
Answer Label: 1
--
Compound: C[CH2][Pb]([CH2]C)([CH2]C)[O]C(=O)COC
Answer Label: 1
--
Compound: O=C1NC2(CCNCC2)Nc2ccccc21
Answer Label: -1
--
Compound: O=[N+]([O-])c1ccc2cnn(CSP(=S)(c3ccccc3)c3ccccc3)c2c1
Answer Label: -1
